Reference source: PubChem BioAssay (NCI)

Method Description: NCI Yeast Anticancer Drug Screen. Data for the mlh1 rad18 strain (AID 175)
Measurement Setup: S. cerevisiae mlh1 rad18 strain growth inhibition; at 50.0 µM; hits give high values
The panel holds about 79,000 compounds, 15% with a hit somewhere; the sample as a whole holds those more often.
Measured Quantity: growth inhibition (%)

Compound: CCN(CC)CC(O)c1ccc(Br)cc1 (configuration not stated)
Value Observed: 5.7
//
Compound: [C-]#[O+].[C-]#[O+].[C-]#[O+].[C-]#[O+].[Mo].c1ccc([As](CC[As](c2ccccc2)c2ccccc2)c2ccccc2)cc1
Value Observed: 6.6
//
Compound: O=C(O)C(CP(=O)(O)O)=C(Cl)Cl
Value Observed: -9.75
//
Compound: NC(=O)CCl
Value Observed: -12.9
//
Compound: NCCn1ccc2ccccc21
Value Observed: 18.2
//
Compound: CC1(C)CCC[N+]1(C)CCC(C(N)=O)(c1ccccc1)c1ccccc1 (configuration not stated)
Value Observed: 3.35
//
Compound: O=S(=O)(Nc1ccc(-c2ccccc2)cc1)c1ccc([As](=O)(O)O)cc1
Value Observed: 40
//
Compound: O.O.[Cl][Pt+2][Cl].[NH-]CC[NH-]
Value Observed: 9.85
//
Compound: O=S(=O)(O)C(Br)(Br)Br
Value Observed: 28.2
//
Compound: CCCCOP(=O)(OCCCC)Oc1ccc2ccccc2c1
Value Observed: 95.4
//
Compound: O=P(Nc1ccc2ccccc2c1)(Nc1ccc2ccccc2c1)N(CCCl)CCCl
Value Observed: -12.8
//
Compound: CN(C)C(=S)Oc1ccc(Cl)cc1S(=O)(=O)F
Value Observed: 9.6
